The origin of these recorded values is PubChem BioAssay AID1508612.

# experiment-summary: passive permeability, PAMPA, ADME assay (AID 1508612)
# settings: pH 7.4, 30.0 min, 50.0 µM
Would you please tag the item yes (1) when its Papp is 300 nm/s or above, and no (0) when it is below?

Worked set:
C[C@@H]1CN(CC(=O)N2CC(C)(C)c3ncc(Cc4ccc(F)cc4)cc32)[C@@H](CN2CCOC[C@H]2C)CN1; yes (1)
Cc1cccc(-n2cnc3cc(C(=O)N4CCCC(C(C)C)C4)ccc32)c1 (stereo not given); yes (1)
O=C(O)CCC(=O)Nc1nc(-c2ccccc2)cs1; no (0)
COc1ccc(C2Nc3ccccc3C(=O)N2Cc2ccco2)cc1COc1ccc(NC(C)=O)cc1 (stereo not given); yes (1)

Decide: is the reported value of Papp for O=C(Nc1nc(-c2ccccc2)cs1)c1ccncc1NS(=O)(=O)c1cccc2cccnc12 equal to or greater than 300 nm/s?
yes (1)

I'd appreciate it if you could say whether CCOc1ccc(CCNC(=O)c2ccc(C(=O)c3ccccc3)cc2)cc1OCC has Papp at least equal to 300 nm/s.
yes (1)

Quick check, Papp >= 300 nm/s? COc1ccccc1-c1cc2c(ccn2C)c(C(=O)NCC2CCN(C)C(=O)C2)n1 (stereo not given)
yes (1)

# check: Papp of CN(C)c1cccc(-c2nnc(N3CCC(C(N)=O)CC3)s2)c1 is greater than or equal to 300 nm/s
yes (1)

Confirm if Papp reported for the compound CCOc1ccc(-c2nnc(SCC(=O)NCc3ccccc3Cl)o2)cc1 is 300 nm/s or above.
no (0)

###

# experiment-summary: passive permeability, PAMPA, ADME assay (AID 1508612)
# settings: pH 7.4, 30.0 min, 50.0 µM
Please mark y if the recorded Papp is equal to or greater than 300 ×10⁻⁶ cm/s, and n if it falls below.

Reference set, count: 4
COc1cccc(CNc2ccc(S(=O)(=O)Nc3nc(C)cs3)cc2)c1O; n
COC(C)(C)CCn1nc(Nc2c(C)cccc2C)c2cnc(Nc3ccc(OCCN4CCCC4)c(F)c3)nc21; y
CC(=O)C1CCN(c2ncc(-c3cccc(N(C)C)c3)s2)CC1; y
CCOc1cc2ncc(C#N)c(Nc3ccc(OCc4ccccn4)c(Cl)c3)c2cc1NC(=O)C=CCN(C)C; n

Evaluate COc1ccc(-c2nc(N3CCOCC3)c3sc(CN(C)c4ncc(C(=O)NO)cn4)cc3n2)cn1 : Papp at minimum 300 ×10⁻⁶ cm/s?
y

Can CC(C)(O)/C=C\C(=O)[C@](C)(O)[C@H]1[C@H](O)C[C@]2(C)[C@@H]3CC=C4[C@@H](C=C(O)C(=O)C4(C)C)[C@]3(C)C(=O)C[C@@]12C be said to have Papp at or above 300 ×10⁻⁶ cm/s?
n

Is reported Papp greater than or equal to 300 ×10⁻⁶ cm/s here: CNc1cc(-c2nc(Nc3ccc(F)c(F)c3)c3ccccc3n2)ccn1
n

Evaluate COc1cc(OC)c2c(=O)[nH]c(-c3cc(C)c(OCCO)c(C)c3)nc2c1 : Papp at minimum 300 ×10⁻⁶ cm/s?
y

Hi, just wondering whether NC(=O)C1CCN(c2nc(-c3cccc(N)c3)cs2)CC1 shows Papp of 300 ×10⁻⁶ cm/s or higher.
n

###

# experiment-summary: passive permeability, PAMPA, ADME assay (AID 1508612)
# settings: pH 7.4, 30.0 min, 50.0 µM
I'd appreciate it if you could label each record using Papp and these ranges: low end (below 30 ×10⁻⁶ cm/s), middle (30 ×10⁻⁶ cm/s to below 700 ×10⁻⁶ cm/s), high end (700 ×10⁻⁶ cm/s or more)

CC1=C(C(=O)Nc2nnc(-c3ccccc3)s2)C(c2nn(C)cc2Cl)N=C(Nc2nc3ccccc3o2)N1 (stereo unspecified); low end
CCCC1=Nc2cc(C(=O)NC3CCCC3)ccc2Sc2ccc(C)cc21; middle
CC(C)n1cc(-c2ccc(Oc3ccccc3)cc2)c2c(N)ncnc21; high end

Lab note: sort Cc1sc(NC(=O)Cc2ccc3c(c2)OCO3)nc1-c1ccc2c(c1)CCN2C into the matching Papp band.
low end

Please indicate the class for COc1ccnc(NC(=S)N2CCN(c3ccccc3C(F)(F)F)CC2)c1 based on its Papp.
middle

Class for Clc1ccccc1-c1nc(NCc2ccc(-c3cccnc3)cc2)c2ccccc2n1 ?
high end

Please classify: CCOc1ccc(NC(=O)c2nc(S(=O)(=O)Cc3ccccc3F)ncc2Cl)cc1
high end

Quick check: band for CCOc1cc(CCNC(=O)c2cc3sccc3n2Cc2ccccc2)cc(F)c1OCC
low end

Class label required: O=C(Nc1nc(-c2ccccc2)cs1)c1ccncc1NS(=O)(=O)c1ccc(Cl)cc1
middle

###

# experiment-summary: passive permeability, PAMPA, ADME assay (AID 1508612)
# settings: pH 7.4, 30.0 min, 50.0 µM
recorded-endpoint: Papp (nm/s)
Give the quantity in nm/s, number only.

Below: 6 compounds and their reported Papp.
COC(=O)Nc1nc2ccc(C(=O)c3ccccc3)cc2[nH]1; 2820
COc1cc2ncnc(Oc3cccc(NC(=O)Nc4cc(C(C)(C)C(F)(F)F)on4)c3)c2cc1OC; 361
O=S(=O)(Nc1ccc(C2CCNCC2)cc1)c1ccc(NCc2cccc(Cl)c2O)cc1; 32.2
COc1ccc(C)cc1NC(=O)c1cnc(-c2ccc(F)cc2)nc1-c1ccncc1; 1300
CCn1c(=O)cc(OCC(=O)N2CCN(c3cccc(Cl)c3)CC2)c2ccccc21; 9410
COC(=O)CNC(=O)c1nc(-c2ccc(Cl)nc2)c2cnccn12; 1030

Proceed to the following item.
Need Papp, item COc1cc(=O)n2c(c1C(=O)N(C)Cc1cscn1)CCN(C(=O)c1ccc(C)cc1C)CC2
99.1

###

# experiment-summary: passive permeability, PAMPA, ADME assay (AID 1508612)
# settings: pH 7.4, 30.0 min, 50.0 µM
Papp for assorted molecules
Just the number in ×10⁻⁶ cm/s, nothing appended.

NC(=O)C(=O)N/N=C/c1ccc([N+](=O)[O-])o1; 7.99

Any idea what its Papp is? The molecule is CCOC(=O)N1CCN(Cc2nc3c(c(=O)n(C)c(=O)n3C)n2CCC(C)C)CC1
765

Give its Papp value. Item: N#Cc1ccccc1CSc1nc2ncc(Br)cc2[nH]1
415

Need Papp of CC(=O)c1c(C)[nH]c(C(=O)Nc2cccc(S(=O)(=O)Nc3ccc(Br)cc3)c2)c1C , thanks.
288

State the recorded Papp for this entry: Cc1ccc(-c2cc(C(=O)Nc3ccc(S(=O)(=O)N(C)C)cc3)c3ccccc3n2)cc1C
23

Query: Papp; subject: COc1ccc2c(c1)/C(=C/c1cnc[nH]1)C(=O)N2
220

For the molecule O=C(O)c1cccc(-c2noc(-c3ccccc3F)n2)c1 , what Papp is on record?
111

What does the data say about its Papp? Entry: CN(C)c1ccc(-c2cc[nH]c(=O)c2N)cc1
116

So what does the record say about Papp for COC(=O)C1=C(C)NC(=O)CC1C(=O)Nc1ccc(Cl)cc1 (stereo unspecified) ?
126

###

# experiment-summary: passive permeability, PAMPA, ADME assay (AID 1508612)
# settings: pH 7.4, 30.0 min, 50.0 µM
# thresholds on Papp define classes: lower: < 20 ×10⁻⁶ cm/s; middle: ≥ 20 ×10⁻⁶ cm/s and < 300 ×10⁻⁶ cm/s; upper: ≥ 300 ×10⁻⁶ cm/s

CN1C(=O)c2ccccc2[S@](=O)c2ccc(C(=O)NCc3ccc(Br)cc3)cc21; upper

Where would CC(C)(C)c1ccc(S(=O)(=O)c2cnc(SCC(=O)Nc3ccc(F)c(Cl)c3)[nH]c2=O)cc1 land among the classes by reported Papp?
lower

Which Papp category applies to COc1ccc(CN2CCc3nc(N4CCN(c5ccc(F)cc5)CC4)ncc3C2)c(OC)c1OC here?
upper

Band assignment needed for COC(=O)[C@]12CCC(C)(C)C[C@@H]1[C@@H]1C(=O)C=C3[C@@]4(C)C=C(C#N)C(=O)C(C)(C)[C@@H]4CC[C@@]3(C)[C@]1(C)CC2 please.
lower

Band for the recorded Papp of CCOc1ccc(NC(=O)c2ccc(F)c(S(=O)(=O)N(CC)Cc3ccccc3)c2)cc1 ?
lower

Hello team, could you let me know which band the following compound falls into: CCOC(=O)Nc1cc(-c2ccc(C)c(NS(C)(=O)=O)c2)nn2c(C)nnc12
middle

For O=C(Nc1ccccc1-c1cn2c(CN3CCNCC3)csc2n1)c1cnc2ccccc2n1 , which Papp bin applies?
middle

Place this compound in its band: O=C(Nc1ccccc1F)c1nc(S(=O)(=O)Cc2ccccc2F)ncc1Cl
upper

Class label required: Cc1noc(C)c1-c1ccc2ncnc(NCc3ccc4[nH]ccc4c3)c2c1
upper

Could you tell me which band COc1ccc(-n2nc(C3CCCN([S+](=O)([O-])c4cccc(C(F)(F)F)c4)C3)[nH]c2=O)cc1 (centres undefined) belongs to?
upper

Input NC1(c2ccccc2Cl)CCCCC1=O (centres undefined) ; output its category
middle

Category of Cc1ccnc(NC(=S)N2CCN(c3ccc(C(F)(F)F)cc3[N+](=O)[O-])CC2)c1 , please.
upper

Class (by measured Papp) for CCCCOC(=O)c1ccnc2cc(C(OCCN3CCCCC3)c3ccccc3Cl)sc12 (centres undefined)
upper

Just checking, what class would you give COc1ccc(S(=O)(=O)N2CCN(C(=O)C3COc4ccccc4O3)CC2)cc1 (centres undefined) here?
upper

Form field 'band' for COc1ccc(C(=O)Nc2ccc3c(c2)N(C2CCCC2)C(=O)c2ccccc2S3)cc1OC
lower

Band for COc1cccc(CNc2ccc(S(=O)(=O)Nc3cccc4ccncc34)cc2)c1O ?
upper
